Please respond with reported selectivity ratio for every item in the list.
# assay-notes: Safety index, ratio of IC50 for african green monkey Vero cells to IC50 for chloroquine-resistant Plasmodium falciparum FcB1/Columbia infected in human erythrocytes
# Assay type: toxicity, cell-based
# experimental-context: read-out: Ratio IC50
In your answer, state the number alone without any accompanying words.

Q. Recorded selectivity ratio of COc1ccc(C(=O)C2=C(O)[C@]3(CC=C(C)C)C[C@H](CC=C(C)C)[C@@](C)(CCC=C(C)C)[C@](CC=C(C)C)(C2=O)C3=O)cc1O [14-O-METHYL-GUTTIFERONE A] , please.
A. 2.6

Q. Recorded selectivity ratio of `CC(C)=CCC[C@]1(C)[C@@H](CC=C(C)C)C[C@]2(CC=C(C)C)C(=O)[C@@]1(CC=C(C)C)C(=O)C(C(=O)c1ccc(OCCC3OCCO3)c(OCCC3OCCO3)c1)=C2O` , please.
A. 20.8

Q. Recorded selectivity ratio of `CC(=O)Oc1cc(C(=O)C2=C(O)[C@]3(CC=C(C)C)C[C@H](CC=C(C)C)[C@@](C)(CCC=C(C)C)[C@](CC=C(C)C)(C2=O)C3=O)ccc1O` , please.
A. 0.9

Q. Recorded selectivity ratio of COCOc1ccc(C(=O)C2=C(O)[C@]3(CC=C(C)C)C[C@H](CC=C(C)C)[C@@](C)(CCC=C(C)C)[C@](CC=C(C)C)(C2=O)C3=O)cc1O [14-O-METHOXYMETHYL-GUTTIFERONE A] , please.
A. 2.7

Q. Recorded selectivity ratio of `CC(=O)Oc1ccc(C(=O)C2=C(O)[C@]3(CC=C(C)C)C[C@H](CC=C(C)C)[C@@](C)(CCC=C(C)C)[C@](CC=C(C)C)(C2=O)C3=O)cc1OC(C)=O` , please.
A. 1.1

Q. Recorded selectivity ratio of `CCCC(=O)Oc1ccc(C(=O)C2=C(O)[C@]3(CC=C(C)C)C[C@H](CC=C(C)C)[C@@](C)(CCC=C(C)C)[C@](CC=C(C)C)(C2=O)C3=O)cc1OC(=O)CCC` , please.
A. 1.6

* * *

# assay-notes: Safety index, ratio of IC50 for african green monkey Vero cells to IC50 for promastigote stage of Leishmania donovani LV9
# Format: toxicity, cell-based
# experimental-context: read-out: Ratio IC50
readout-kind: selectivity ratio
In your answer, state the number alone without any accompanying words.

Q. Recorded selectivity ratio of `CCCCCCCCCCCCCCCCOP(=O)([O-])OCC[N+](C)(C)C` , please.
A. 4

Q. Recorded selectivity ratio of `COCOc1ccc(C(=O)C2=C(O)[C@]3(CC=C(C)C)C[C@H](CC=C(C)C)[C@@](C)(CCC=C(C)C)[C@](CC=C(C)C)(C2=O)C3=O)cc1O` , please.
A. 0.9

Q. Recorded selectivity ratio of `CC(=O)Oc1cc(C(=O)C2=C(O)[C@]3(CC=C(C)C)C[C@H](CC=C(C)C)[C@@](C)(CCC=C(C)C)[C@](CC=C(C)C)(C2=O)C3=O)ccc1O` , please.
A. 0.8

Q. Recorded selectivity ratio of `C[C@@H]1[C@H](O)[C@@H](C)/C=C/C=C/C=C/C=C/C=C/C=C/C=C/[C@H](O[C@@H]2O[C@H](C)[C@@H](O)[C@H](N)[C@@H]2O)C[C@@H]2O[C@](O)(C[C@@H](O)C[C@@H](O)[C@H](O)CC[C@@H](O)C[C@@H](O)CC(=O)O[C@H]1C)C[C@H](O)[C@H]2C(=O)O` , please.
A. 11

Q. Recorded selectivity ratio of `COc1ccc(C(=O)C2=C(O)[C@]3(CC=C(C)C)C[C@H](CC=C(C)C)[C@@](C)(CCC=C(C)C)[C@](CC=C(C)C)(C2=O)C3=O)cc1OC` , please.
A. 1.8

Q. Recorded selectivity ratio of `CC(C)=CCC[C@]1(C)[C@@H](CC=C(C)C)C[C@]2(CC=C(C)C)C(=O)[C@@]1(CC=C(C)C)C(=O)C(C(=O)c1ccc(OCCC3OCCO3)c(OCCC3OCCO3)c1)=C2O` , please.
A. 1.2

Q. Recorded selectivity ratio of `COc1ccc(C(=O)C2=C(O)[C@]3(CC=C(C)C)C[C@H](CC=C(C)C)[C@@](C)(CCC=C(C)C)[C@](CC=C(C)C)(C2=O)C3=O)cc1O` , please.
A. 1.2

Q. Recorded selectivity ratio of `CCCC(=O)Oc1ccc(C(=O)C2=C(O)[C@]3(CC=C(C)C)C[C@H](CC=C(C)C)[C@@](C)(CCC=C(C)C)[C@](CC=C(C)C)(C2=O)C3=O)cc1OC(=O)CCC` , please.
A. 0.6
